assay: hepatitis C replication reporter changes, two-sided – Huh7 cells, luciferase reporter, HCV replication inhibitor project, primary screen (AID 1109); details: Huh7 HCV replicon luciferase reporter, 48 h; higher = more signal;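 note: huh7 hepatoma cells harbouring a luciferase neomycin HCV replicon reporter; luciferase luminescence as measure of HCV replicon replication; test concentration not given here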
The label depends only on z-score: Met if it is at least -2, Not met if it is smaller.

{"compound": "Cc1ccc(S[C@]2(C(=O)O)CC(=O)N(Cc3ccccc3C(F)(F)F)[C@@H]2c2ccc(CO)cc2I)cc1", "classification": "Met"}
{"compound": "C=CCOC(=O)[C@H]1[C@@H]2C(=O)O[C@@H](c3ccccc3)[C@@H](c3ccccc3)N2[C@@H](c2ccc(OCCOC(=O)[C@H]3C[C@H]4C(=O)N[C@@H](CCCCN(C)C)C(=O)N4[C@H]3c3cccc(OCCO)c3)cc2)[C@]12C(=O)Nc1ccc(I)cc12", "classification": "Not met"}
{"compound": "CC(C)CCC[C@@H](C)[C@H]1CC[C@@]2(C)C3=C(CC[C@]12C)[C@@]1(C)CC[C@H](OC(=O)c2ccc(C(F)(F)F)nc2)C(C)(C)C1CC3 (some centres not stated)", "classification": "Met"}
{"compound": "COc1ccc([C@H]2C[C@H]3C(I)=C[C@@H]2C(=O)[C@]32CO2)cc1", "classification": "Not met"}
{"compound": "COc1ccc([Si](C)(C)[C@@H]2[C@@H](CCn3cc([C@H](O)c4ccccc4)nn3)O[C@]3(C(=O)N(Cc4cccc(N5CCC5=O)c4)c4ccccc43)[C@H]2C)cc1", "classification": "Not met"}
{"compound": "CCCCCCc1nc(-c2ccc(-c3ccc(Cl)c(Cl)c3)o2)cc2c1[Si](C(C)C)(C(C)C)O[C@H]2c1ccccc1", "classification": "Met"}
{"compound": "CC(=O)NCCCC[C@@H]1NC(=O)[C@H]2C[C@@H](C(=O)NCCCCCNC(=O)CS)[C@@H](c3ccc(O)cc3)N2C1=O", "classification": "Met"}
